Target: human TASK-3 (Homo sapiens, UniProt Q9NPC2)
Sequence (Q9NPC2 whole entry): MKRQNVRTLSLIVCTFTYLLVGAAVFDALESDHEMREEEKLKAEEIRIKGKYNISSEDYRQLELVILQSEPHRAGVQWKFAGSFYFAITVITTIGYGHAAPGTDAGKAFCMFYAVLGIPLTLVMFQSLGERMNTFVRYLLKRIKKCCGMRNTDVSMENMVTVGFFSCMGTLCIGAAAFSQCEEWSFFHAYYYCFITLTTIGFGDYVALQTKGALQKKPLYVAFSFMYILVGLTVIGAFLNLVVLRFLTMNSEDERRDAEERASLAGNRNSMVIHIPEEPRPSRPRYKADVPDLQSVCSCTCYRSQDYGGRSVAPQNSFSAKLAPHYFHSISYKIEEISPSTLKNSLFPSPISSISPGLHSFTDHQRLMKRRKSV
Test: Whole-cell patch clamp on tsA201 cells expressing cloned human TASK-3
Conditions: tsA201 cells, whole-cell patch clamp, room temperature; read-out: EC50, inhibition of human TASK-3 current
This listing pairs compounds with measured EC50.

compound | measuredTarget | EC50
CCN1CC(CCN2CCOCC2)C(c2ccccc2)(c2ccccc2)C1=O (stereo not drawn) [doxapram] | human TASK-3 (Homo sapiens, UniProt Q9NPC2) | 2500 nM
CCN1CC(CCN2CCOCC2)C(c2ccccc2)(c2ccccc2)C1=O (stereo not drawn) [GAL‐054] | human TASK-3 (Homo sapiens, UniProt Q9NPC2) | ~1400 nM

With those in mind, consider the next compound.
// query I would be grateful if you could share the reported EC50 for CCN1CC(CCN2CCOCC2)C(c2ccccc2)(c2ccccc2)C1=O (stereo not drawn) [GAL‐053] .
// result ~286000 nM

###

Biological target: human TASK-1 (Homo sapiens, UniProt O14649)
Sequence (O14649 whole entry): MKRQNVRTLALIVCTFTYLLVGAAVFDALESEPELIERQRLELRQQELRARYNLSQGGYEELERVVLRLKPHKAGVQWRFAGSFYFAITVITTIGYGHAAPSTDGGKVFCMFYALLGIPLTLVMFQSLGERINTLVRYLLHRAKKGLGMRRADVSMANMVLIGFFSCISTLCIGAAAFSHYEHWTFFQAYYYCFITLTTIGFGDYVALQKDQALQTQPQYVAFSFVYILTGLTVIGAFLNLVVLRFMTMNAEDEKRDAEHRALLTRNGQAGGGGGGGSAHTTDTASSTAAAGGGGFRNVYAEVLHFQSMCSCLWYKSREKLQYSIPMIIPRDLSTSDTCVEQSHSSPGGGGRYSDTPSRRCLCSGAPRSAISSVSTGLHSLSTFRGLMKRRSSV
Experiment: Whole-cell patch clamp on tsA201 cells expressing cloned human TASK-1
Settings: tsA201 cells, whole-cell patch clamp, room temperature; read-out: EC50, inhibition of human TASK-1 current
Quick list: EC50 per entry.

molecule | parameter | readoutValue
CCN1CC(CCN2CCOCC2)C(c2ccccc2)(c2ccccc2)C1=O (stereo not drawn) [GAL‐054] | EC50 | ~1.6 µM

// query Need EC50 of CCN1CC(CCN2CCOCC2)C(c2ccccc2)(c2ccccc2)C1=O (stereo not drawn) [doxapram] , thanks.
// result 4 µM

// query Another: CCN1CC(CCN2CCOCC2)C(c2ccccc2)(c2ccccc2)C1=O (stereo not drawn) [GAL‐053]
// result ~336 µM

The measured values listed here are drawn from paper PMC7003846.
